- Test system: TrkB (Homo sapiens)
- Construct: host or cells: U2OS
- Sequence (Q16620 32-822): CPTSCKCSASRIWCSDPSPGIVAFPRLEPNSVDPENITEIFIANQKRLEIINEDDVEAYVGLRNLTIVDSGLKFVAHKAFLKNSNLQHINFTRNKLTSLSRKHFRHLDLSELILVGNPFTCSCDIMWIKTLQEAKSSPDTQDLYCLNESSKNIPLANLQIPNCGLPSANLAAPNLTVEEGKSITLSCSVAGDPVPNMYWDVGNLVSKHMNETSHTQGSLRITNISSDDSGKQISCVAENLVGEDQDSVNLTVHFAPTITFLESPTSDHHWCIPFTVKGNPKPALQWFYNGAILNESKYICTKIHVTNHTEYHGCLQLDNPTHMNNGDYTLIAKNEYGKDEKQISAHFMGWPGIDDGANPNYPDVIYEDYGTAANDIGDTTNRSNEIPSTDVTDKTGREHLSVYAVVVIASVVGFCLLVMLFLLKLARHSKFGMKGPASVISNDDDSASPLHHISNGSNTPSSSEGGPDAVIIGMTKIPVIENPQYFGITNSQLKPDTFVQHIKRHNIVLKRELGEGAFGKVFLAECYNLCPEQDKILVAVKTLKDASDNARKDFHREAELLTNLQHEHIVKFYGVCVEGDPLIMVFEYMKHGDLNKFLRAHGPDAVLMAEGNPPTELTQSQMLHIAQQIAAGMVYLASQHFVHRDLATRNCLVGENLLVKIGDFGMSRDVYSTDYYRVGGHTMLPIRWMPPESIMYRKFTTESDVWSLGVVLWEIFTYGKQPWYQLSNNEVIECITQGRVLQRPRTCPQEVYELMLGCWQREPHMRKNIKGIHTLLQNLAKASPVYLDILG
- Assay: PathHunter eXpress TrkB functional assay kit (U2OS cells, agonist BDNF)
- Format: cell-based
- Cond: compound 1 μM, read-out: TrkB % inhibition rate (based on 1 μM)
Quantity: inhibition at 1 µM (%)
Respond with the bare value in %.

| Compound | Quantity | Assay result |
| --- | --- | --- |
| Oc1c(Cl)cc(-c2c[nH]c3ncnc(-c4cnn(C5CCNCC5)c4)c23)cc1Cl [Example 15] | inhibition at 1 µM | 4 |
| CN1CCN(c2ccc(C(=O)Nc3n[nH]c4ncc(-c5ccc(F)cc5)cc34)cc2)CC1 [Example 11] | inhibition at 1 µM | 17 |
| CN1CCN(c2ccc(C(=O)Nc3n[nH]c4ncc(-c5ccccc5)cc34)cc2)CC1 [Example 10] | inhibition at 1 µM | 27 |
| CN1CCN(c2ccc(C(=O)Nc3n[nH]c4ncc(-c5ccncc5)cc34)cc2)CC1 [Example 13] | inhibition at 1 µM | -1 |
| CC(C)NC(=O)Nc1cccc(-c2cnc3[nH]nc(NC(=O)c4ccc(N5CCN(C)CC5)cc4)c3c2)c1 [Example 9] | inhibition at 1 µM | 1 |
| CN1CCN(c2ccc(C(=O)Nc3n[nH]c4ncc(Br)cc34)cc2)CC1 [Example 14] | inhibition at 1 µM | -8 |
| Oc1c(Cl)cc(-c2c[nH]c3ncnc(NC4CCC(O)CC4)c23)cc1Cl (centres unmarked) [Example 23] | inhibition at 1 µM | 56 |

Here is the next item to consider.
What reported inhibition at 1 µM corresponds to O=C(Nc1n[nH]c2ncc(-c3cnn(C4CCNCC4)c3)cc12)c1ccc(F)cc1 [Example 22] on TrkB (Homo sapiens)?
-2
